So I've got a bunch of compounds here, and I need their cell viability values.
System: P12-Ichikawa
assay_name: cell viability relative to DMSO control; higher = less cytotoxic
condition_details: RPMI 5 mM glucose + 10% dialyzed FBS; 48 h; 1.71 µM
One number for each entry, in %.

NNCCc1ccccc1 : 116
COc1ccccc1OCC(O)COC(N)=O (centres undefined) : 101
CNCCCC12CCC(c3ccccc31)c1ccccc12 : 85.7
CC(C)c1ccc2c(c1)c(SC(C)(C)C)c(CC(C)(C)C(=O)[O-])n2Cc1ccc(Cl)cc1 : 89.3
CN[C@H]1CCC2=CC(=C(OC)C(=C2C/3=C/C=C(OC)\C(=O)/C=C13)OC)OC : 11.3

Could you tell me cell viability for each of these compounds? They are listed below.
1. CC(C)(O)CC[C@@H](O)[C@](C)(O)[C@H]1CC[C@@]2(O)C/3=C/C(=O)[C@@H]4C[C@@H](O)[C@@H](O)C[C@]4(C)[C@H]3CC[C@]12C
2. O=C(O)C1(Cc2cccc(Nc3nccs3)n2)CCC(Oc2cccc(Cl)c2F)CC1 (centres undefined)
3. CCOC(=O)N1CCN(/[N+]([O-])=N/Oc2ccc([N+](=O)[O-])cc2C#N)CC1
4. O=C(Nc1cccc(C(F)(F)F)c1)Nc1cc([S+](=O)([O-])NC2CC2)ccc1-c1ccsc1

Out:
86.9
68.9
16.4
94.1

// provenance: the supplement of paper PMC11451515
